EXPERIMENT_NOTES: gradient 5% acetonitrile 3 min, to 50% in 2 min, to 85% in 15 min, held 3 min, 100 µL/min
STATED_CONDITIONS: column: Zorbax Extend-C18 2.1 x 50 mm; eluents: water / acetonitrile, 0.1% formic acid
Use RP-LC retention time to assign classes; range list: c1: < 700 s; c2: ≥ 700 s and < 800 s; c3: ≥ 800 s

Problem: Which RP-LC retention time band matches O=C(NC1CCCCCCC1)c1nnc(-c2ccc(S(=O)(=O)N3CCCC3)cc2)o1 ?
Result: c3

Problem: Again, but for Cc1cccc(-c2nnc(-c3cccc(S(=O)(=O)N(C)C)c3)o2)c1
Result: c3

Problem: Again, but for CC1CCN(c2ccc(-c3noc(CCC(=O)N4CCN(C5CCCCC5)CC4)n3)cc2)CC1
Result: c2

Problem: Again, but for CC(C)c1cccc(NC(=O)Cn2nc3c(N4CCSCC4)nccn3c2=O)c1
Result: c3

Problem: Again, but for COc1c(C(=O)NCc2ccc3c(c2)OCO3)sc2cc(Cl)ccc12
Result: c3

Problem: Again, but for O=C(Nc1cccc(F)c1)C1CCN(S(=O)(=O)c2ccc3[nH]c(=O)ccc3c2)CC1
Result: c2

Problem: Again, but for Cc1ccc(NC(=O)CSc2ccc(N3CCCC(C(=O)NC4CC4)C3)nn2)cc1C (centres undefined)
Result: c1

Problem: Again, but for Cc1ccccc1Cn1cc(CCC(=O)NCCN2CCOCC2)c2ccccc21
Result: c1

Problem: Again, but for CCCN(CC1CCOC1)C(=O)Nc1ccccc1 (centres undefined)
Result: c1

Problem: Again, but for CCn1c(=O)c(N2CCN(C(=O)Nc3cc(F)ccc3F)CC2)nc2ccccc21
Result: c3

Problem: Again, but for Cc1nc(Nc2ccc(F)cn2)sc1C(=O)NCCc1ccc(Cl)cc1
Result: c3

Problem: Again, but for Cc1sc(NC(=O)CC(C)C)nc1-c1ccc2c(c1)NC(=O)C(C)O2 (centres undefined)
Result: c3

Problem: Again, but for CC(C)C(=O)NCc1csc(C2CCN(C(=O)C3CCC3)CC2)n1
Result: c3

Problem: Again, but for COc1ccc(CN2CCc3nc(N4CCN(c5ncccn5)CC4)ncc3C2)cc1
Result: c1

Problem: Again, but for CN1CCN(CCNC(=O)CCc2cn(-c3ccccc3)nc2-c2ccc3c(c2)OCO3)CC1
Result: c1

Problem: Again, but for COc1ccc(S(=O)(=O)N2CC(C(=O)NC3CCCCC3)Oc3cc(C)ccc32)cc1 (centres undefined)
Result: c3

Problem: Again, but for CC(C)CN(Cc1cccnc1)C1CN(S(=O)(=O)c2cn(C)cn2)C1
Result: c1

Problem: Again, but for COc1ccc(-c2nnc(-c3cccnc3NCc3ccc(N(C)C)cc3)o2)cc1
Result: c3

Problem: Again, but for O=C1CCN(CC2CCCCC2)CCCC(c2nc(-c3cnccn3)no2)CCN1 (centres undefined)
Result: c1

Problem: Again, but for CNc1nc(Nc2ccc(F)cc2)nc2ccccc12
Result: c1

Problem: Again, but for O=C(NCC1CCCCC1)C1CCN(C(=O)c2ncn3c2COC(c2ccc(Cl)cc2)C3)CC1 (centres undefined)
Result: c3

Problem: Again, but for Cc1ccc(C(=O)Nc2cc(-c3ccsc3)no2)c(C)c1
Result: c3

Problem: Again, but for COCCCNC(=O)C1CCN(c2ncccc2S(=O)(=O)N2CCCCC2)CC1
Result: c2

Problem: Again, but for O=C(CCc1ccc2nc(-c3ccccc3)[nH]c2c1)NC1CCCC1
Result: c1

Problem: Again, but for Cc1cncc(CN2CCC(=C3c4ccc(Cl)cc4CCc4cccnc43)CC2)c1
Result: c1

Problem: Again, but for Cc1cc(C)n(-c2ccnc(N3CCC(C(=O)NCC4CC4)CC3)n2)n1
Result: c2
